target: T1, CD3 epsilon homodimer protein (UniProt P07766 23-126); test: SPR, antibody over immobilised CD3e homodimer;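 further: SPR at 25 °C with CD3 epsilon homodimer amine-coupled to a CM4 sensor chip and antibody flowed over as analyte in HBS-EP+ running buffer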
T1 construct: also called CD3 (CD3 epsilon)
T1 sequence (P07766 23-126): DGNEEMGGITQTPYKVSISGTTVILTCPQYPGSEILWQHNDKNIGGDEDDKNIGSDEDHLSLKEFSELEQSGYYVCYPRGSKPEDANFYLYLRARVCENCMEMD
hey, just use Yes if measured KD ratio to GLS3000 is less than 1, otherwise No

These recorded examples may help you get a feel for the data.
# binder, class_assignment
measured = [
    ("CE115HA000/GLS3000 G89R (antibody, IgG1, name in Kabat numbering, V domains shown, one-arm IgG1) VH: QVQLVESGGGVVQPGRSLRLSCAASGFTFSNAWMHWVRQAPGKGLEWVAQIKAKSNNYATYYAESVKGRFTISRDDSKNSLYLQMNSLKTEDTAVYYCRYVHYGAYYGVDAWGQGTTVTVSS VL: DIVMTQSPLSLPVTPGEPASISCRSSQSLVHSNRNTYLHWYQQKPGQAPRLLIYKVSNRFSGVPDRFSGSGSGTDFTLKISRVEAEDVGVYYCRQGTQVPYTFGQGTKLEIK", "No"),
    ("CE115HA000/GLS3000 Q90P (antibody, IgG1, name in Kabat numbering, V domains shown, one-arm IgG1) VH: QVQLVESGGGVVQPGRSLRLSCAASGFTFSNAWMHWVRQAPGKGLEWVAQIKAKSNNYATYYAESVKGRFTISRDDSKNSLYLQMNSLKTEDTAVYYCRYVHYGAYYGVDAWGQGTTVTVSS VL: DIVMTQSPLSLPVTPGEPASISCRSSQSLVHSNRNTYLHWYQQKPGQAPRLLIYKVSNRFSGVPDRFSGSGSGTDFTLKISRVEAEDVGVYYCGPGTQVPYTFGQGTKLEIK", "No"),
    ("CE115HA000/GLS3000 G89Y (antibody, IgG1, name in Kabat numbering, V domains shown, one-arm IgG1) VH: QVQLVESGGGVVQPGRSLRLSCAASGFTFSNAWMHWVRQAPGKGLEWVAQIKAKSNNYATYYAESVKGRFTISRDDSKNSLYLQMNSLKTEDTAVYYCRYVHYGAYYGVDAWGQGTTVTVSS VL: DIVMTQSPLSLPVTPGEPASISCRSSQSLVHSNRNTYLHWYQQKPGQAPRLLIYKVSNRFSGVPDRFSGSGSGTDFTLKISRVEAEDVGVYYCYQGTQVPYTFGQGTKLEIK", "No"),
]

Now turn to the next binder.
State whether 1 exceeds KD ratio to GLS3000 recorded for CE115HA000/GLS3000 F55E (antibody, IgG1, name in Kabat numbering, V domains shown, one-arm IgG1) VH: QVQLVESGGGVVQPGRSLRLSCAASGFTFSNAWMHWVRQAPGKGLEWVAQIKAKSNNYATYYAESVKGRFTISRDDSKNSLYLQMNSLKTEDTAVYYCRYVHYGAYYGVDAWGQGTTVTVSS VL: DIVMTQSPLSLPVTPGEPASISCRSSQSLVHSNRNTYLHWYQQKPGQAPRLLIYKVSNRESGVPDRFSGSGSGTDFTLKISRVEAEDVGVYYCGQGTQVPYTFGQGTKLEIK .
Yes
